# Test Name: Non-enzymatic stability under cellular assay conditions (HPLC)
# Assay type: physicochemical
# Assay Conditions: compound remaining, assay medium DMEM, 37 °C, 24 h
# Experimental: An important aspect in the development of PROTACs is testing chemical stability. On the one hand, we tested all PROTACs produced for their stability under cellular assay conditions. For this purpose, 10 µM solutions of the PROTACs and reference inhibitor were incubated for 72 h at 37 °C with the assay medium DMEM. The remaining amount of the compounds was determined by HPLC after 6, 12, 24, 48 and 72 h. The results of the stability studies are shown in Table S2 (Supplementary Information). […]
The following molecules are listed with their measured 24 h- % values.
# number only, unit % dropped from output

Cc1ncsc1-c1ccc([C@H](C)NC(=O)[C@@H]2C[C@@H](O)CN2C(=O)[C@@H](NC(=O)CCOCCOCCOCCNC(=O)c2cc(Oc3ccc(NC(=O)Nc4cc(C(C)(C)C)on4)cc3)ccn2)C(C)(C)C)cc1 [MA49, reference compound]    103.5
Cc1ncsc1-c1ccc([C@H](C)NC(=O)[C@@H]2C[C@@H](O)CN2C(=O)[C@@H](NC(=O)CCCCCNC(=O)c2cc(Oc3ccc(NC(=O)Nc4cccc(C(F)(F)F)c4)cc3)ccn2)C(C)(C)C)cc1    100.5

Would you kindly look at the next entry?
Ask | Could you tell me which 24 h- % is on file for `Cc1ncsc1-c1ccc([C@H](C)NC(=O)[C@@H]2C[C@@H](O)CN2C(=O)[C@@H](NC(=O)CCCCCCCNC(=O)c2cc(Oc3ccc(NC(=O)Nc4cc(C(C)(C)C)on4)cc3)ccn2)C(C)(C)C)cc1` ?
Reply | 102.2
